test system: PDX1258; test: area over the GR curve, 72 h; higher = more effect
property.label: area over the GR curve (GR)
A number alone suffices; assume GR.

Record summary for CN1CCN(CCOc2cc(OC3CCOCC3)c3c(Nc4c(Cl)ccc5c4OCO5)ncnc3c2)CC1 [Saracatinib/AZD0530] (max 10 µM) : reported area over the GR curve = 0.275

Record summary for CCNC(=O)c1noc(-c2cc(C(C)C)c(O)cc2O)c1-c1ccc(CN2CCOCC2)cc1 [Luminespib/NVP-AUY922] (max 1 µM) : reported area over the GR curve = 0.608

Record summary for O=C(c1cc(Cc2n[nH]c(=O)c3ccccc23)ccc1F)N1CCN(C(=O)C2CC2)CC1 [Olaparib/AZD2281] (max 10 µM) : reported area over the GR curve = 0.02

====

system: BT549; experiment: GRmax, 72 h; higher = less effect
Please provide measured GRmax, 72 h for the entries that follow.

Record summary for CN(C)C/C=C/C(=O)Nc1ccc(O[C@@H]2CCC[C@@H](Nc3ncc(Cl)c(-c4c[nH]c5ccccc45)n3)C2)cc1 [BSJ-01-175] (max 10 µM) : reported GRmax, 72 h = -0.593 GR

Record summary for CNc1nc(-c2ccc3c(N)n[nH]c3c2)cc(N2C[C@@H](C(=O)NC3CCCCC3)CC[C@H]2C)n1 (max 10 µM) : reported GRmax, 72 h = 0.666 GR

Record summary for Cc1nc(NC(=O)N2CCC[C@H]2C(N)=O)sc1-c1ccnc(C(C)(C)C(F)(F)F)c1 [Alpelisib/BYL719] (max 10 µM) : reported GRmax, 72 h = 0.684 GR

====

tested on: HCC38; assay: GRmax, 72 h; higher = less effect
Rule: GRmax, 72 h of 0.5 GR or more gives y; anything lower gives n.

Request: Check if GRmax, 72 h >= 0.5 GR (inclusive). Item: NC1(C(=O)N[C@@H](CCO)c2ccc(Cl)cc2)CCN(c2nc[nH]c3nccc2-3)CC1 [AZD5363] (max 10 µM)
Response: y

Request: Check if GRmax, 72 h >= 0.5 GR (inclusive). Item: CC(C)Nc1cc(-c2c[nH]c(C(=O)N[C@H](CO)c3cccc(Cl)c3)c2)c(Cl)cn1 [BVD523] (max 10 µM)
Response: n

Request: Check if GRmax, 72 h >= 0.5 GR (inclusive). Item: CN(C)C/C=C/C(=O)Nc1ccc(C(=O)Nc2cccc(Nc3cc(-c4c[nH]c5ccccc45)ncn3)c2)cc1 [THZ-P1-2] (max 10 µM)
Response: n

Request: Check if GRmax, 72 h >= 0.5 GR (inclusive). Item: Cc1nc(Nc2ncc(C(=O)Nc3c(C)cccc3Cl)s2)cc(N2CCN(CCO)CC2)n1 [Dasatinib] (max 10 µM)
Response: n

Request: Check if GRmax, 72 h >= 0.5 GR (inclusive). Item: CNC(=O)c1cccc(-c2ccc3c(N4CCOC[C@@H]4C)nc(N4CCOC[C@@H]4C)nc3n2)c1 [AZD2014] (max 10 µM)
Response: n

Request: Check if GRmax, 72 h >= 0.5 GR (inclusive). Item: CC1(N)CCN(c2cnc(-c3cccc(Cl)c3Cl)c(N)n2)CC1 [SHP099] (max 10 µM)
Response: y

Request: Check if GRmax, 72 h >= 0.5 GR (inclusive). Item: Cc1cc(C(C)Nc2ccccc2)c2nc(N3CCOCC3)cc(=O)n2c1 (configuration not stated) [TGX221] (max 10 µM)
Response: y

====

test system: SUM185PE; assay: GRmax, 72 h; higher = less effect
Please provide measured GRmax, 72 h for the entries that follow.
A number alone suffices; assume GR.

Form: item CN1CC[C@H](c2c(O)cc(O)c3c(=O)cc(-c4ccccc4Cl)oc23)[C@H](O)C1 [Flavopiridol] (max 1 µM) ; test system SUM185PE; GRmax, 72 h: 0.155

Form: item CNC(=O)c1cccc(-c2ccc3c(N4CCOC[C@@H]4C)nc(N4CCOC[C@@H]4C)nc3n2)c1 [AZD2014] (max 10 µM) ; test system SUM185PE; GRmax, 72 h: 0.244

Form: item COc1cc2c(Oc3ccc4[nH]c(C)cc4c3F)ncnc2cc1OCCCN1CCCC1 [Cediranib/AZD2171] (max 10 µM) ; test system SUM185PE; GRmax, 72 h: 0.0765

====

Please provide measured GRmax, 72 h for the entries that follow.
system: MDAMB436; experiment: GRmax, 72 h; higher = less effect;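 note: breast cell lines in 384-well plates, nine doses across a 10^4 range, Dye Drop imaging of viable cells vs DMSO and time-zero plates, GR 0 means no net growth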
A number alone suffices; assume GR.

Record summary for N.N.[Cl][Pt][Cl] [Cisplatin] (max 10 µM) : reported GRmax, 72 h = -0.0204

Record summary for CC(C)n1nc(-c2ccc3oc(N)nc3c2)c2c(N)ncnc21 [INK128/MLN0128] (max 3.162 µM) : reported GRmax, 72 h = 0.211

Record summary for CN(C)C/C=C/C(=O)Nc1ccc(C(=O)Nc2cccc(Nc3cc(-c4c[nH]c5ccccc45)ncn3)c2)cc1 [THZ-P1-2] (max 10 µM) : reported GRmax, 72 h = -0.278

Record summary for C=CCn1c(=O)c2cnc(Nc3ccc(N4CCN(C)CC4)cc3)nc2n1-c1cccc(C(C)(C)O)n1 [AZD1775] (max 10 µM) : reported GRmax, 72 h = -0.26

====

system: BT549; assay: area over the GR curve, 72 h; higher = more effect
Please provide measured area over the GR curve for the entries that follow.
A number alone suffices; assume GR.

Record summary for NC(=O)Nc1cc(-c2cccc(F)c2)sc1C(=O)N[C@H]1CCCNC1 [AZD7762] (max 10 µM) : reported area over the GR curve = 0.601

Record summary for CC[C@@H]1C(=O)N(C)c2cnc(Nc3ccc(C(=O)N[C@H]4CC[C@H](N5CCN(CC6CC6)CC5)CC4)cc3OC)nc2N1C(C)C [Volasertib/BI6727] (max 1 µM) : reported area over the GR curve = 0.568

Record summary for CC(C)Nc1cc(-c2c[nH]c(C(=O)N[C@H](CO)c3cccc(Cl)c3)c2)c(Cl)cn1 [BVD523] (max 10 µM) : reported area over the GR curve = 0.109

Record summary for CCN1CCN(Cc2ccc(Nc3ncc(F)c(-c4cc(F)c5nc(C)n(C(C)C)c5c4)n3)nc2)CC1 (max 10 µM) : reported area over the GR curve = 0.127

Record summary for CCC(=O)Nc1ccc(C(=O)Nc2ccc(Nc3ncc4c(n3)N(C)c3ccc(C)cc3C(=O)N4C)cc2)cc1 [FMF-03-145-1] : reported area over the GR curve = 1.02

Record summary for CNc1nc(-c2ccc3c(N)n[nH]c3c2)cc(N2C[C@@H](C(=O)NC3CCCCC3)CC[C@H]2C)n1 (max 10 µM) : reported area over the GR curve = 0.0789

Record summary for CNCc1ccc(-c2[nH]c3cc(F)cc4c3c2CCNC4=O)cc1 [Rucaparib] (max 10 µM) : reported area over the GR curve = 0.0437

Record summary for Cc1nc(-c2cn3c(n2)-c2ccc(-c4cnn(C(C)(C)C(N)=O)c4)cc2OCC3)n(C(C)C)n1 [Taselisib/GDC0032] (max 10 µM) : reported area over the GR curve = 0.223

====

test system: HCC1187; experiment: area over the GR curve, 72 h; higher = more effect
Please provide measured area over the GR curve for the entries that follow.
Give your result as the value with the unit written after it.

Record summary for CN(C)C/C=C/C(=O)Nc1ccc(O[C@@H]2CCC[C@@H](Nc3ncc(Cl)c(-c4c[nH]c5ccccc45)n3)C2)cc1 [BSJ-01-175] (max 10 µM) : reported area over the GR curve = 1.08 GR

Record summary for C[C@@H]1COCCN1c1cc(C2([S@](C)(=N)=O)CC2)nc(-c2cc[nH]c3nccc2-3)n1 [AZD6738] (max 10 µM) : reported area over the GR curve = 0.249 GR

Record summary for COc1cccc(OCCCN)c1-c1cc(Nc2cnc(C#N)cn2)n[nH]1 : reported area over the GR curve = 0.235 GR

====

Please provide measured area over the GR curve for the entries that follow.
tested on: CAL51; assay: area over the GR curve, 72 h; higher = more effect;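 note: Dye Drop or Deep Dye Drop imaging of viable cells in 384-well plates (Hoechst nuclei, LIVE/DEAD dye), nine half-log doses, GR normalized to DMSO controls and time-zero plates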
A number alone suffices; assume GR.

Record summary for CN(C)C(=O)c1cc2cnc(Nc3ccc(N4CCNCC4)cn3)nc2n1C1CCCC1 [LEE011/Ribociclib] (max 10 µM) : reported area over the GR curve = 0.299

Record summary for COc1cccc(OCCCN)c1-c1cc(Nc2cnc(C#N)cn2)n[nH]1 : reported area over the GR curve = 0.528

Record summary for O=C(c1cc(Cc2n[nH]c(=O)c3ccccc23)ccc1F)N1CCN(C(=O)C2CC2)CC1 [Olaparib/AZD2281] (max 10 µM) : reported area over the GR curve = 0.116

Record summary for Cc1nc(NC(=O)N2CCC[C@H]2C(N)=O)sc1-c1ccnc(C(C)(C)C(F)(F)F)c1 [Alpelisib/BYL719] (max 10 µM) : reported area over the GR curve = 0.149

Record summary for Cc1nc(Nc2ncc(C(=O)Nc3c(C)cccc3Cl)s2)cc(N2CCN(CCO)CC2)n1 [Dasatinib] (max 10 µM) : reported area over the GR curve = 0.516

Record summary for CC(C)NC[C@@H](C(=O)N1CCN(c2ncnc3c2[C@H](C)C[C@H]3O)CC1)c1ccc(Cl)cc1 [Ipatasertib/GDC0068] (max 10 µM) : reported area over the GR curve = 0.224

Record summary for CCCCOc1c(C(=O)c2c(F)cc(C)cc2F)c[nH]c2nncc1-2 (max 10 µM) : reported area over the GR curve = 0.226

Record summary for CC[C@@H]1C(=O)N(C)c2cnc(Nc3ccc(C(=O)N[C@H]4CC[C@H](N5CCN(CC6CC6)CC5)CC4)cc3OC)nc2N1C(C)C [Volasertib/BI6727] (max 1 µM) : reported area over the GR curve = 0.679

Record summary for CC(=O)c1c(C)c2cnc(Nc3ccc(N4CCN(CCOCCOCCOCCNC(=O)COc5cccc6c5C(=O)N(C5CCC(=O)NC5=O)C6=O)CC4)cn3)nc2n(C2CCCC2)c1=O (centres undefined) [BSJ-03-123] (max 10 µM) : reported area over the GR curve = 0.187

The reported measurements were obtained from the supplement of paper PMC9663587.
